Provide the reported pIC50 of each item.
# System: Jurkat
# experiment: MTT anti-proliferative assay
# Assay type: cell-based, human
# protocol.conditions: read-out: IC50 ± SD, Jurkat; MTT, 24 h treatment
Numbers only, as −log10 of the molar value.

Observe how each entry below is paired with its result.
COc1cc(C=CC(=O)c2ccc(NC(=O)CSc3nnc(-c4ccccc4)o3)cc2)cc(OC)c1OC ... 4.55
COc1ccc(-c2nnc(SCC(=O)Nc3ccc(C(=O)C=Cc4ccc(OC)c(OC)c4)cc3)o2)cc1 ... 4.55
O=C(CSc1nnc(-c2ccccc2)o1)Nc1ccc(C(=O)C=Cc2ccccc2)cc1 ... 5.07

Okay, next one:
Exam item: Name the reported pIC50 value associated with the compound N.N.[Cl][Pt][Cl] [Cisplatin, reference compound]
Marked response: 4.82

----------
# target: EGFR (Homo sapiens)
# Sequence (P00533 25-1210): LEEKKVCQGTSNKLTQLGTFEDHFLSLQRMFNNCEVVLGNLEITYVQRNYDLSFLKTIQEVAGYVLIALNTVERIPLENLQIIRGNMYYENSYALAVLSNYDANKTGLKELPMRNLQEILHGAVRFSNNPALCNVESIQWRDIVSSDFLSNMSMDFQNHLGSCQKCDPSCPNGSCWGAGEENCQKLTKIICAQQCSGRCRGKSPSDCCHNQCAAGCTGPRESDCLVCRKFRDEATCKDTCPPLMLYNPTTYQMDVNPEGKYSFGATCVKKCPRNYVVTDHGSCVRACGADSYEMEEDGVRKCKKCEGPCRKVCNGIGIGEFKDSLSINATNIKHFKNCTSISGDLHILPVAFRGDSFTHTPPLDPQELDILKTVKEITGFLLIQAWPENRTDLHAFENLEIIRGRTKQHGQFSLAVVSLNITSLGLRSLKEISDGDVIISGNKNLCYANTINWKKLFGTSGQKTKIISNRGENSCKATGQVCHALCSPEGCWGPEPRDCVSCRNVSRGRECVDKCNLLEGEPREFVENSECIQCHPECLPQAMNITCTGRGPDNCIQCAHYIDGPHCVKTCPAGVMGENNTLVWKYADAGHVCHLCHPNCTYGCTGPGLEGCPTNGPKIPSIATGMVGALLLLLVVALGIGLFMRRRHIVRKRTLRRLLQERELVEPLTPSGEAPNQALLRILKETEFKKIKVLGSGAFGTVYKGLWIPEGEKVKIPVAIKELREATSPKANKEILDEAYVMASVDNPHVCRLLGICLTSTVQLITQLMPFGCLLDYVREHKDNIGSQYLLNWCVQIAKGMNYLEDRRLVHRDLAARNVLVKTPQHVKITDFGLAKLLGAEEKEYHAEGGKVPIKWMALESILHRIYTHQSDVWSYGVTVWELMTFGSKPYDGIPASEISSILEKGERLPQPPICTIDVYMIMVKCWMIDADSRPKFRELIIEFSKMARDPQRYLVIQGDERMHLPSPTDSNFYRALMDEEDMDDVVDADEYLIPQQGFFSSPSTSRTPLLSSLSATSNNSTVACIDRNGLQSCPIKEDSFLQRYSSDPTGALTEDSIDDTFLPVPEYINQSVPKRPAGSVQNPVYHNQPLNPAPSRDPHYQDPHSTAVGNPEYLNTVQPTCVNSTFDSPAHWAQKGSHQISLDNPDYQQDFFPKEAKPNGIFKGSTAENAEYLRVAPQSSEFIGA
# experiment: EGFR kinase assay
# Type: biochemical
Provide the reported pIC50 of each item.
Numbers only, as −log10 of the molar value.

Observe how each entry below is paired with its result.
O=C(CSc1nnc(-c2ccc(Cl)cc2)o1)Nc1ccc(C(=O)C=Cc2ccc(Cl)cc2)cc1 ... 4.19
COc1ccc(-c2nnc(SCC(=O)Nc3ccc(C(=O)C=Cc4ccc(Cl)cc4)cc3)o2)cc1 ... 4.74
COc1ccc(-c2nnc(SCC(=O)Nc3ccc(C(=O)C=Cc4cc(OC)c(OC)c(OC)c4)cc3)o2)cc1 ... 5.63
COc1cc(C=CC(=O)c2ccc(NC(=O)CSc3nnc(-c4ccc(Cl)cc4)o3)cc2)cc(OC)c1OC ... 4.53
COc1cc(-c2nnc(SCC(=O)Nc3ccc(C(=O)C=Cc4ccc(Cl)cc4)cc3)o2)cc(OC)c1OC ... 4.26
O=C(CSc1nnc(-c2ccccc2)o1)Nc1ccc(C(=O)C=Cc2ccc(Cl)cc2)cc1 ... 4.45

Exam item: Name the reported pIC50 value associated with the compound `COc1ccc(C=CC(=O)c2ccc(NC(=O)CSc3nnc(-c4cc(OC)c(OC)c(OC)c4)o3)cc2)cc1OC`
Marked response: 4.32

----------
# System: KG-1a
# experiment: MTT anti-proliferative assay
# Format: cell-based, human
# protocol.conditions: Homo sapiens, KG-1a, 24 h, read-out: IC50 ± SD, KG-1a
observable: IC50 (µM)
Give bare numbers, in µM.

COc1ccc(-c2nnc(SCC(=O)Nc3ccc(C(=O)C=Cc4ccccc4)cc3)o2)cc1OC ... 65.6
COc1ccc(C=CC(=O)c2ccc(NC(=O)CSc3nnc(-c4ccc(OC)c(OC)c4)o3)cc2)cc1OC ... 93.1
COc1ccc(-c2nnc(SCC(=O)Nc3ccc(C(=O)C=Cc4cc(OC)c(OC)c(OC)c4)cc3)o2)cc1 ... 16

# per-item lookup of IC50; items listed below
1. COc1ccc(-c2nnc(SCC(=O)Nc3ccc(C(=O)C=Cc4ccc(Cl)cc4)cc3)o2)cc1
2. COc1cc(C=CC(=O)c2ccc(NC(=O)CSc3nnc(-c4cc(OC)c(OC)c(OC)c4)o3)cc2)cc(OC)c1OC
3. COc1cc(C=CC(=O)c2ccc(NC(=O)CSc3nnc(-c4ccc(Cl)cc4)o3)cc2)cc(OC)c1OC
4. COc1ccc(C=CC(=O)c2ccc(NC(=O)CSc3nnc(-c4ccccc4)o3)cc2)cc1OC

Marked response:
1: 71.1; 2: 71.5; 3: 79; 4: 95.2

----------
# target: c-Src (Homo sapiens, UniProt P12931)
# Sequence (P12931 whole entry): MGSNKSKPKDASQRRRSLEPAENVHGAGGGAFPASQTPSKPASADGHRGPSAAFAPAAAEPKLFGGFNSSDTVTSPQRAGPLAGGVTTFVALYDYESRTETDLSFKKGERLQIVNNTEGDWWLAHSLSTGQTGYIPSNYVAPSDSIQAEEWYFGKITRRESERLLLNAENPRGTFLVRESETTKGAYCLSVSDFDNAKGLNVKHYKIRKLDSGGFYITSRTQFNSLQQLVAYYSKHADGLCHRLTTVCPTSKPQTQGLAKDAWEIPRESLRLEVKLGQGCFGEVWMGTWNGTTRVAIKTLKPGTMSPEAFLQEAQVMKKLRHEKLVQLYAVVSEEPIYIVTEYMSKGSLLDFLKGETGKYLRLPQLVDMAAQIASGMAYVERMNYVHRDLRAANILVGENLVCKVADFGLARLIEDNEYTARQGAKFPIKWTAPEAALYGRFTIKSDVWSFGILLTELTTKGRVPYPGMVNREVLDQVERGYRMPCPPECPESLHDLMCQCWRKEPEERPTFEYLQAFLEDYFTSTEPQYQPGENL
# experiment: Src kinase assay
# Format: biochemical
observable: IC50 (µM)
Give bare numbers, in µM.

# per-item lookup of IC50; items listed below
1. O=C(CSc1nnc(-c2ccc(Cl)cc2)o1)Nc1ccc(C(=O)C=Cc2ccccc2)cc1
2. COc1ccc(-c2nnc(SCC(=O)Nc3ccc(C(=O)C=Cc4ccccc4)cc3)o2)cc1OC
3. COc1ccc(C=CC(=O)c2ccc(NC(=O)CSc3nnc(-c4cc(OC)c(OC)c(OC)c4)o3)cc2)cc1OC
4. COc1ccc(-c2nnc(SCC(=O)Nc3ccc(C(=O)C=Cc4ccc(Cl)cc4)cc3)o2)cc1
5. COc1ccc(-c2nnc(SCC(=O)Nc3ccc(C(=O)C=Cc4ccc(Cl)cc4)cc3)o2)cc1OC
6. COc1cc(-c2nnc(SCC(=O)Nc3ccc(C(=O)C=Cc4ccc(Cl)cc4)cc3)o2)cc(OC)c1OC
7. O=C(CSc1nnc(-c2ccccc2)o1)Nc1ccc(C(=O)C=Cc2ccc(Cl)cc2)cc1

Marked response:
1. 74.4
2. 51.2
3. 60.3
4. 33.6
5. 13.7
6. 53.1
7. 44.1

# per-item lookup of IC50; items listed below
1. COc1ccc(/C=C/C(=O)c2ccc(NC(=O)CSc3nnc(-c4ccc(OC)cc4)o3)cc2)cc1
2. COc1ccc(C=CC(=O)c2ccc(NC(=O)CSc3nnc(-c4ccc(OC)c(OC)c4)o3)cc2)cc1
3. COc1cc(-c2nnc(SCC(=O)Nc3ccc(C(=O)C=Cc4ccccc4)cc3)o2)cc(OC)c1OC

Marked response:
25
29.5
40.2

# per-item lookup of IC50; items listed below
1. COc1cc(C=CC(=O)c2ccc(NC(=O)CSc3nnc(-c4ccc(Cl)cc4)o3)cc2)cc(OC)c1OC
2. COc1ccc(C=CC(=O)c2ccc(NC(=O)CSc3nnc(-c4ccccc4)o3)cc2)cc1OC
3. COc1ccc(C=CC(=O)c2ccc(NC(=O)CSc3nnc(-c4cc(OC)c(OC)c(OC)c4)o3)cc2)cc1
4. COc1ccc(C=CC(=O)c2ccc(NC(=O)CSc3nnc(-c4ccc(Cl)cc4)o3)cc2)cc1
5. COc1cc(C=CC(=O)c2ccc(NC(=O)CSc3nnc(-c4cc(OC)c(OC)c(OC)c4)o3)cc2)cc(OC)c1OC
6. COc1ccc(-c2nnc(SCC(=O)Nc3ccc(C(=O)C=Cc4cc(OC)c(OC)c(OC)c4)cc3)o2)cc1
7. COc1ccc(C=CC(=O)c2ccc(NC(=O)CSc3nnc(-c4ccc(Cl)cc4)o3)cc2)cc1OC

Marked response:
1. 43.7
2. 57.3
3. 0.96
4. 22.1
5. 35.1
6. 6.24
7. 41.4

Reference for the values: paper PMC6923798
